// data source = paper PMC7248923

A collection of compounds and their measured pIC50
Assay: ABTS radical scavenging assay
Conditions: mean of three determinations ± SD; Nd = not detected; 732 nm
pIC50: −log10 of the molar value.
Property measured: pIC50

{"columns": ["Compound", "Property measured", "Measured number"],
 "data": [
  ["O=C1O[C@H]([C@@H](O)CO)C(O)=C1O [Ascorbic acid, reference compound]", "pIC50", 4.08],
  ["O=c1c(OC2OC(CO)C(O)C(O)C2O)c(-c2ccc(O)cc2)oc2cc(OC3OC(CO)C(O)C(O)C3O)cc(O)c12 (stereo not drawn) [Compound 9, kaempferol-3,7-diglucoside]", "pIC50", 3.61],
  ["O=c1c(OC2OC(CO)C(O)C(O)C2OC2OC(CO)C(O)C(O)C2OC2OC(CO)C(O)C(O)C2O)c(-c2ccc(O)c(O)c2)oc2cc(O)cc(O)c12 (stereo not drawn) [Compound 8, quercetin sphorotrioside]", "pIC50", 4.01],
  ["Cc1c(C)c2c(c(C)c1O)CCC(C)(C(=O)O)O2 (stereo not drawn) [Trolox, reference compound]", "pIC50", 4.02],
  ["COc1ccc2c(c1O)-c1c(O)c(OC)cc3c1[C@H](C2)[N+](C)(C)CC3", "pIC50", 3.86],
  ["C[C@@H]1O[C@@H](OC[C@H]2O[C@@H](Oc3c(-c4ccc(O)c(O)c4)oc4cc(O)cc(O)c4c3=O)[C@H](O)[C@@H](O)[C@@H]2O)[C@H](O)[C@H](O)[C@H]1O", "pIC50", 3.89]
]}

* * *

Biological target: human recombinant PTP1B (Homo sapiens)
Sequence (P18031 whole entry): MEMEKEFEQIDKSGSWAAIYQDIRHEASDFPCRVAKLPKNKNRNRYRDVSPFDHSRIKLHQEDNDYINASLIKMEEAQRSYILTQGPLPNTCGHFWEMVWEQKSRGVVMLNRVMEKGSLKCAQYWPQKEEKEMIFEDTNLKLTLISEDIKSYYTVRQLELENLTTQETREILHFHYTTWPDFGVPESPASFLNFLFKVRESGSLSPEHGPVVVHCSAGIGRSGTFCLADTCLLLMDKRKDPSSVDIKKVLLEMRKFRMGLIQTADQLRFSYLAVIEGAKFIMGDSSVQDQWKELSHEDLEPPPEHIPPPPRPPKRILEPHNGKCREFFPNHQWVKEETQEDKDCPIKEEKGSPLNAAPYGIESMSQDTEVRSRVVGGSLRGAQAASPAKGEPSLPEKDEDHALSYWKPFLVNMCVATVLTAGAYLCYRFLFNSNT
Assay: PTP1B inhibitory assay (pNPP substrate)
Conditions: mean of three determinations ± SD, Nd = not detected, pH 6, 37 °C
Property measured: IC50 (µM)

{"columns": ["Compound", "Property measured", "Unit name", "Measured number"],
 "data": [
  ["CC1OC(OC2C(OC3CCC4(C)C(CCC5(C)C4CC=C4C6CC(C)(C)CCC6(C(=O)O)CCC45C)C3(C)CO)OCC(O)C2O)C(O)C(O)C1O (stereo not shown)", "IC50", "µM", 91.3]
]}
